Test: RP, Waters ACQUITY UPLC HSS T3, 100 × 2.1 mm, 1.8 µm, 30 °C, 0.4 mL/min, estimated dead time 0.55 min; A: water + 0.1% formic acid, pH 3; B: acetonitrile + 0.1% formic acid, pH 3; gradient (min/%B) 0/0 2/0 15/100 22/100 22.1/0 26/0
Details: stereoisomer not certain
Property: LC retention time

INSERT INTO measurements (compound, reported_value) VALUES
  ('O=C(C=Cc1ccc(O)c(O)c1)OC(Cc1ccc(O)c(O)c1)C(=O)O (centres undefined)', '9.87 min'),
  ('CC1OC(OC2C(O)C(OCCc3ccc(O)c(O)c3)OC(CO)C2OC(=O)C=Cc2ccc(O)c(O)c2)C(O)C(O)C1O (centres undefined) [Verbascoside]', '9.05 min'),
  ('COc1ccc(-c2cc(=O)c3c(OC)c(OC)c(OC)cc3o2)cc1OC', '12.6 min'),
  ('COc1cc(/C=C/C(=O)O)ccc1O', '9.48 min');
